Molecular target: Fatty-acid amide hydrolase 1 (Rattus norvegicus)
Sequence (P97612 whole entry): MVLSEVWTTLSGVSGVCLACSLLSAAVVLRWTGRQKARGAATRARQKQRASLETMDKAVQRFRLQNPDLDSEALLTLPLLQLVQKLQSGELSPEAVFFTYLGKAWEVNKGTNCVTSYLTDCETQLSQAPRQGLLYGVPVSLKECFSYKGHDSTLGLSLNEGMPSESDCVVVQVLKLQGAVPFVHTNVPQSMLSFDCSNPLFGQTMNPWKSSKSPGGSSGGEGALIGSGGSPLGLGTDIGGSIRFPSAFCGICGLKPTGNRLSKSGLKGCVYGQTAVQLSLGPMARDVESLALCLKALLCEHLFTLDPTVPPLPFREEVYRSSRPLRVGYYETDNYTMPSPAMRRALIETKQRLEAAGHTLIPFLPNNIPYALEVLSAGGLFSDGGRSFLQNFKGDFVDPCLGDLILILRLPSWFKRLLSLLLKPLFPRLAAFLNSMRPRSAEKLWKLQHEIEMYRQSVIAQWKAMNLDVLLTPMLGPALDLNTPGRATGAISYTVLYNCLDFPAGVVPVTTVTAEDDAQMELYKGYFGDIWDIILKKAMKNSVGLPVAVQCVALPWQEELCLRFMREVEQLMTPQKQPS
Test: Inhibition of FAAH in rat brain homogenates pre-incubated for 10 mins before addition of [3H]anandamide and [3H]AEA substrates for 30 mins by liquid scintillation counting
Assay type: tissue-based
Conditions: read-out: IC50
Test readout: pIC50
Schema: pIC50 number; meaning minus log10 of the concentration expressed in molar units.

INSERT INTO measurements (compound, test_readout, numeric_readout) VALUES
  ('C[C@@H](C(=O)O)c1ccc2c3cc(Cl)ccc3n(C(=O)c3ccc(Cl)cc3)c2c1', 'pIC50', 4.83),
  ('Cc1cccnc1NC(=O)C(C)c1ccc(CC(C)C)cc1 (configuration not stated)', 'pIC50', 4.18),
  ('CC(C(=O)Nc1ccccc1)c1ccc2c(c1)[nH]c1ccc(Cl)cc12 (racemic)', 'pIC50', 5.54),
  ('CCCCCCOC(=O)n1c2ccc(Cl)cc2c2ccc(C(C)C(=O)O)cc21 (racemic)', 'pIC50', 4.50);

Lab book: pIC50 of CCCCCCS(=O)(=O)n1c2ccc(Cl)cc2c2ccc(C(C)C(=O)O)cc21 (racemic) noted as 4.30

For this compound ( CC(C(=O)O)c1ccc2c3cc(Cl)ccc3n(C(=O)c3cnc[nH]3)c2c1 (racemic) ), measured pIC50 is 5.25

pIC50 in this record for COc1cccc(Cn2c3ccc(Cl)cc3c3ccc(C(C)C(=O)O)cc32)c1 (racemic) : 4.49

Quick note, pIC50 for COc1ccc(C(=O)n2c3ccc(Cl)cc3c3ccc(C(C)C(=O)O)cc32)cc1 (racemic) landed at 4.97

----------
Target: UniProt:P97612
Test: Inhibition of FAAH in Sprague-Dawley rat cerebellum membranes pre-incubated for 10 mins before addition of [3H]AEA substrate in presence of ethyl alcohol by liquid scintillation counting
Type: cell membranes, Membrane
Test readout: pIC50
pIC50 here is simply -log10 of the concentration when that concentration is written in mol/L.

Memo: Cc1cccnc1NC(=O)C(C)c1ccc(CC(C)C)cc1 (stereo unspecified) , reported pIC50: 6.30

----------
Target: Prostaglandin G/H synthase 1 (Ovis aries)
Assay: Inhibition of sheep COX1 pre-incubated for 5 mins before arachidonic acid substrate addition in presence of DMSO by peroxidase activity detection based oxygen electrode assay
Test readout: IC50 (µM)
Quick note: give the figure in µM, leave out the unit.

Just so you know, measured IC50 for Cc1cccnc1NC(=O)C(C)c1ccc(CC(C)C)cc1 (stereo unspecified) came out at 60

----------
Molecular target: Prostaglandin G/H synthase 1 (Ovis aries)
Sequence (P05979 whole entry): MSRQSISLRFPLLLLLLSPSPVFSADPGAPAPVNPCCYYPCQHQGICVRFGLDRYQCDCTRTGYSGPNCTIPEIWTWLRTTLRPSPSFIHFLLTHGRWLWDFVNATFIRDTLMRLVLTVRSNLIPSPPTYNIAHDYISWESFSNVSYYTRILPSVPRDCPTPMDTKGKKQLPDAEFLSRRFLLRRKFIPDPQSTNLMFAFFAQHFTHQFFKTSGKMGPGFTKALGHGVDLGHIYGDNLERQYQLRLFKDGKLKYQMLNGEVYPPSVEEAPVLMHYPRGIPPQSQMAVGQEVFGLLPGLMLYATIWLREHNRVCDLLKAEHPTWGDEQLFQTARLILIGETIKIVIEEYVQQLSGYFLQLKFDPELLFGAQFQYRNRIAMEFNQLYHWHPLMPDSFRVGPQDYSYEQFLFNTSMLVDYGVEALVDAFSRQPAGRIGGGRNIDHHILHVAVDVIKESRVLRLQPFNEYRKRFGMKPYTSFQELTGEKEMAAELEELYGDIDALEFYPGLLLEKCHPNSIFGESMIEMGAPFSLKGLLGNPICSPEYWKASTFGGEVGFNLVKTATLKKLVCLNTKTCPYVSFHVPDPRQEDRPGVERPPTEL
Experiment: Inhibition of ovine COX1 pre-incubated for 10 mins before arachidonic acid substrate addition by enzyme immunoassay
pIC50: −log10 of the molar value.
Test readout: pIC50

Answered examples (5):
INSERT INTO results (compound, result) VALUES
  ('C[C@@H](C(=O)O)c1ccc2c(c1)[nH]c1ccc(Cl)cc12', '< 4.00'),
  ('COc1ccc(C(=O)n2c3ccc(Cl)cc3c3ccc(C(C)C(=O)O)cc32)cc1 (racemic)', '< 4.00'),
  ('CC(C(=O)O)c1ccc2c3cc(Cl)ccc3n(S(=O)(=O)c3ccc(Cl)cc3)c2c1 (racemic)', '< 4.00'),
  ('C[C@H](C(=O)O)c1ccc2c3cc(Cl)ccc3n(C(=O)c3cocn3)c2c1', 5.39),
  ('CC(C(=O)O)c1ccc2c3cc(Cl)ccc3n(Cc3ccccc3)c2c1 (racemic)', '< 4.00');

Entry CC(C(=O)Nc1ccccc1)c1ccc2c(c1)[nH]c1ccc(Cl)cc12 (racemic) ; pIC50 = < 4.00

Record summary for CC(C(=O)O)c1ccc2c3cc(Cl)ccc3n(C)c2c1 (racemic) : reported pIC50 = < 4.00

The value of pIC50 measured for the compound CCCCCCCCNC(=O)n1c2ccc(Cl)cc2c2ccc(C(C)C(=O)O)cc21 (racemic) turned out to be 4.81

The compound identified as CCCCCCOC(=O)n1c2ccc(Cl)cc2c2ccc(C(C)C(=O)O)cc21 (racemic) registered its pIC50 at 4.76
